test system: UACC-257; assay: NCI tumour cell line growth inhibition, 48 h
Activity calls are given as the source filed them. Rule as the data show it: active = GI50 up to about 1.1 µM and inactive = higher.
test_readout: GI50

1) CC1=NN(C(=O)c2ccccc2O)C(=O)/C1=C/c1cccc([N+](=O)[O-])c1: 5.73 µM (inactive)
2) N#CC(C#N)=C1C(=O)NC(N)=C1C#N: > 100 µM (inactive)
3) O=C1C[C@@H]2CCCC[C@@H]2C12SCCS2: > 100 µM (inactive)
4) COc1ccc(/C=C2\CC3C4CC=C5C[C@@H](O)CC[C@]5(C)C4CC[C@]3(C)\C2=N\O)cc1OC (stereo partly specified): 7.94 µM (inactive)
5) COc1cc2nc(-c3ccccc3)cc(O)c2c(OC)c1OC: > 100 µM (inactive)
6) CCc1ccccc1NC(=O)C(=O)CC(=O)c1sc(Nc2ccccc2)nc1C: > 100 µM (inactive)
7) CCC12CN(C(=O)OC)C3C(Br)C1CCC(=O)C32 (stereo unspecified): > 100 µM (inactive)
8) CCOC(=O)C(/C(=N/NC(=O)OC)C(=O)Nc1ccc(C(C)=O)cc1)c1cnc2ccccc2n1 (stereo unspecified): > 100 µM (inactive)
9) c1csc(C[N+]23CN4CN(CN(C4)C2)C3)c1: > 100 µM (inactive)
10) CCCN(C(=O)c1ccccc1)C(C#N)c1ccc(C(C#N)N(CCC)C(=O)c2ccccc2)cc1 (stereo unspecified): > 100 µM (inactive)
11) CC(C)C1=C(Cc2ccccc2)C(=O)O/C1=C\c1ccc(O)c(Cl)c1: 18.8 µM (inactive)
12) O=S(=O)(O)CCCC1S(=O)(=O)OCCOS1(=O)=O: > 100 µM (inactive)
13) O=C1c2ccccc2-c2cc3ccccc3c(=O)n21: > 100 µM (inactive)
14) Cc1ccc(O)c(-c2csc(NCN3CCN(CNc4nc(-c5cc(C)ccc5O)cs4)CC3)n2)c1: > 100 µM (inactive)
15) Cc1c(Cl)cccc1NC(=O)C(=O)C1C(=O)NC(=O)NC1=O: > 100 µM (inactive)
16) c1ccc([C@@H]2N[C@@]3(CO[Si](c4ccccc4)(c4ccccc4)c4ccccc4)CC[C@H]4CN[C@@H]2[C@H]43)cc1: 14.3 µM (inactive)
17) O=C(Nc1ccccc1Br)c1cccc([N+](=O)[O-])c1O: 2.01 µM (inactive)
18) O=C(/C(=C/c1cccs1)c1ccccc1)c1ccccc1: > 100 µM (inactive)
19) CCOC(=O)/C(C(=O)Nc1cccc(C(F)(F)F)c1)=C(/N)N1CCCC1: > 100 µM (inactive)
20) O=C(/C=C1\Nc2ccc([N+](=O)[O-])cc2N\C1=C/C(=O)c1ccc(F)cc1)c1ccc(F)cc1: > 100 µM (inactive)
21) CN1CC(S(=O)(=O)c2ccccc2)CC(S(=O)(=O)c2ccccc2)C1c1ccccc1 (stereo unspecified): 15 µM (inactive)

====

test system: SK-MEL-28; test: NCI tumour cell line growth inhibition, 48 h
Calls of active or inactive are those of the source. Rule as the data show it: active = GI50 up to about 1.1 µM and inactive = higher.
Labels: active, inactive

1) Cc1ccc(/N=N/c2ccc(O)c(CN(C)C)c2)cc1: inactive
2) CCOC(=O)CCC(NC(=O)c1ccc(Nc2nc3cc(C(F)(F)F)ccc3nc2-c2ccccc2)cc1)C(=O)OCC (stereo not given): inactive
3) COc1c(-c2nc3ccc(N4CCN(C)CC4)nc3[nH]2)cc(OC)c2[nH]c(CO)nc12: inactive
4) CC(=O)/C=C1\Nc2sc(C)c(C)c2C(=O)S1: inactive
5) NC(=O)N1N=C2c3ccccc3SC[C@H]2[C@@H]1c1ccccc1: inactive
6) COCC12CC(CC1=O)C1C2ON2c3ccccc3C(=O)C12c1ccccc1 (stereo not given): inactive
7) O=C1C=CC(=O)c2c1ccc1c3ccccc3n(Cc3ccccc3)c21: inactive
8) CS/C(C)=N/OC(=O)NCCCCNc1ccc(N=[N+]=[N-])cc1: inactive
9) CC(C)C1=C(Cc2ccccc2)C(=O)O/C1=C\c1ccc(O)c(Cl)c1: inactive
10) COc1ccccc1/C=C/c1cnccn1: inactive
11) O=C(Nc1ccccc1C(=O)O)/C(=C/c1ccccc1)NC(=O)c1ccccc1: inactive
12) O=C(c1ccco1)N(Cc1ccco1)C(=S)Nc1ccccc1: inactive
13) COc1cc2nc(-c3cccs3)nc(Cl)c2cc1OC: inactive
14) CNS(=O)(=O)c1ccccc1C(=N)c1ccccc1: inactive
15) c1ccc2c(CNCCCCCCNCc3cccc4ccccc34)cccc2c1: inactive
16) CN(C)c1ccc(/C=c2\c3ccccc3n3c2cc(-c2ccccc2)[n+]3C)cc1: active
17) O=C1Nc2ccccc2/C1=C\c1c(-c2ccccc2)nc2n1CCS2: inactive
18) Nc1ccc2c(c1)Oc1c(F)c(F)cc3c(=O)c(C(=O)O)cn-2c13: inactive
19) N#Cc1ccccc1NC(=O)/C(=N\NC(=O)c1ccncc1)C(c1cnc2ccc([N+](=O)[O-])cc2n1)[N+](=O)[O-] (stereo not given): inactive
20) O=c1c(=O)c2c(Br)sc(Br)c2c1=O: inactive
21) CN1CCCC2C(c3ccccc3)C(C3=NCCCC3)C(c3ccccc3)CC21 (stereo not given): inactive
22) O=[N+]([O-])c1ccc2c(c1)OCCOCCOc1ccc([N+](=O)[O-])cc1OCCOCCO2: inactive
23) COc1cccc(NC(=O)CC(=O)n2nc(-c3ccccc3)c(/N=N/c3ccc(Cl)cc3)c2-c2ccccc2)c1: inactive
24) O/N=C(/C(Cl)=C(Cl)Cl)C(Cl)Cl: inactive
25) CC1=NN(C(=O)c2ccccc2O)C(=O)/C1=C/c1cccc([N+](=O)[O-])c1: inactive
26) O=C(CC(=O)Nc1ccccc1)N/N=C/c1cc(/N=N/c2ccc(Br)cc2)ccc1O: inactive
27) O=C(c1ccccc1)c1ccc(COc2ccc(C(c3c(O)c4ccccc4oc3=O)c3c(O)c4ccccc4oc3=O)cc2)cc1: inactive
28) CCOc1ccc(NC(=O)C(=O)NO)cc1: inactive
29) c1ccc(-c2nc3ccccc3nc2SCc2cccnc2)cc1: inactive
30) CCCO/S(=N\S(=O)(=O)c1ccccc1)c1ccccc1[N+](=O)[O-] (stereo not given): inactive
31) CC1(C)O[C@@H](CBr)C[C@H](C[C@H]2C[C@@H](O)C[C@@H](CCOCc3ccccc3)O2)O1: inactive
32) NC1CC(=O)c2csc(Cl)c21 (stereo not given): inactive
33) O=C1NC(=S)N/C1=C/c1c(-c2ccccc2)[nH]c2ccccc12: inactive
34) CN1CCN(c2n[nH]c(=O)c3c2nnn3C2CCCCC2)CC1: inactive
35) CCCCCCCCCCCCCCCC(=O)Nc1ccn(C2CC(OP(=O)(O)OCC3OC(n4cc(F)c(=O)[nH]c4=O)CC3OC(C)=O)C(CO)O2)c(=O)n1 (stereo not given): inactive
36) Clc1ccccc1C1=NN(c2ccccc2)C2c3ccccc3OCC12 (stereo not given): inactive
37) O=C1c2ccccc2-c2cc3ccccc3c(=O)n21: inactive
38) Nc1cc2[nH]c(=O)c3cc(Cl)ccc3c2cc1Cl: inactive
39) CC(C)=C1C2CC3(C)CCC2(C)CCC13.CC1=CCC2C3(C)CCC2(C(C)C)C1C3 (stereo not given): inactive
40) CSc1ccc(NC(=O)C2c3[nH]c4ccccc4c3C3CCC(C(C)(C)C)CC3C2C(=O)O)cc1 (stereo not given): inactive

====

system: SK-MEL-28; experiment: NCI tumour cell line growth inhibition, 48 h
Activity calls are given as the source filed them. Cut-off read from the data, not from the text of the source: active = GI50 up to about 1.1 µM and inactive = higher.
Labels: active, inactive

1. CCOC(=O)c1c(N2CCOCC2)[nH]c(=O)c(C(c2ccc(N(C)C)cc2)c2c(O)c(C(=O)OCC)c(N3CCOCC3)[nH]c2=O)c1O: inactive
2. COc1cc(C(=O)O)cc2c1[nH]c1ccccc12 [MUKOEIC ACID]: inactive
3. CC(O[Si](C)(C)C(C)(C)C)[C@H](NC(=O)OCC(Cl)(Cl)Cl)C(=O)O (some centres undefined): inactive
4. CCN(CC)CCOc1ccc(N2Cc3cc(OC)c(OC)cc3C2=O)cc1: inactive
5. Cc1nc(Nc2ccc([N+](=O)[O-])cc2)sc1C(=O)/C=C/c1ccc(N(C)C)cc1: inactive
6. Oc1ccc2c(c1)CCc1c-2n(CCN2CCOCC2)c2ccc(O)cc12: inactive
7. CCCCCCCC(=O)N/N=C/c1ccc(Sc2nccn2C)c([N+](=O)[O-])c1: inactive
8. CCSc1c2ccccc2c(-c2nc(F)nc(F)n2)n1CCc1ccccc1: inactive
9. O=C(/C=C1\Nc2ccc([N+](=O)[O-])cc2N\C1=C/C(=O)c1ccc(F)cc1)c1ccc(F)cc1: inactive
10. CC(C)=CCC[C@@H](C)/C=C/C=C(\C)C(=O)CC[C@@H]1CC[N@+]2(C)CCCC[C@H]12: inactive
11. O=C(CNc1ccccc1[N+](=O)[O-])Nn1c(-c2ccccc2)nc2ccccc2c1=O: inactive
12. O=c1[nH]nc2ccccc2c1Cl: inactive
13. CCCN(CCCc1ccccc1)CCc1ccc2[nH]c(=S)[nH]c2c1: inactive
14. NC(Cc1ccc(O)cn1)C(=O)NC(C(=O)O)c1ccccc1 (centres undefined): inactive
15. CC1(C)[C@@H]2C[C@H]1C(Cc1ccccc1C[C@H]1c3cc(-c4ccccn4)ncc3[C@H]3C[C@@H]1C3(C)C)c1cc(-c3ccccn3)ncc12 (some centres undefined): active
16. CC(C)(C)c1cc(CCC(=O)Nc2ccc(Cl)cc2)nc(S)n1: inactive
17. COc1ccc(/C=C2/C[N+](C)(C)C/C(=C/c3ccc(OC)cc3)C2=O)cc1: inactive
18. O=C1C(N2CCOCC2)=C(Cl)C(=O)c2ncccc21: inactive
19. COc1cc(C(=O)Nc2cccc3ccccc23)c(Br)c(OC)c1OC: inactive
20. C=C1CC/C=C(/C(=O)O)CC[C@H]2[C@@H]1CC2(C)C: inactive
21. CC1=C(C(=O)NCc2ccccc2)C(c2ccccc2C)C(C(=O)NCc2ccccc2)=C(C)N1: inactive
22. CC(=O)OCC1OC(O[C@@H]2C[C@H]3C(C)(C)[C@H](OC(C)=O)CC[C@]3(C)[C@H]3CC[C@@]45C[C@H](O)C[C@H](C)[C@@H]4CC=C5[C@@]32C)C(O)C(O)C1O (some centres undefined): inactive
23. [N-]=[N+]=NC(c1cn(C2CC(O)C(CO)O2)c(=O)[nH]c1=O)C(Cl)Br (centres undefined): inactive
24. OC1COC2CC(Nc3ccccn3)OC12 (centres undefined): inactive
25. OC[C@H]1N[C@H](CO)[C@@H](O)[C@H]1O: inactive
26. O=S(=O)(O)CCCC1S(=O)(=O)OCCOS1(=O)=O: inactive
27. Cc1cn(Cc2cccc(C3=NCCCN3)c2)c(=O)n(Cc2cccc(C3=NCCCN3)c2)c1=O: inactive
28. C=C1c2[nH]c3ccccc3c2CC(C(=O)O)N1C(O)c1ccc(S(=O)(=O)O)cc1 (centres undefined): inactive
29. COc1ccc(C(SCC(N)C(=O)O)(c2ccc(OC)cc2)c2ccc(OC)cc2)cc1 (centres undefined): inactive
30. O=c1[nH]c(-c2ccccc2)nc2cc([N+](=O)[O-])c(/C(Cl)=C/c3ccccc3)cc12: inactive
31. Cc1ccc(C(=C2Sc3ccccc3S2)C(=C2Sc3ccccc3S2)c2ccc(C)s2)s1: inactive
32. S=C1SC(=N\c2ccccc2)/C(=N/c2ccccc2)N1c1ccccc1: inactive
33. CC1=C[P+](Cc2ccccc2)(c2ccccc2)CC1 (centres undefined): inactive
34. CC(C)(C)C(=O)C(CC(=O)c1ccccc1)C(=O)C(C)(C)C: inactive
35. CC(C)C(Sc1nc(-c2ccccc2)c(-c2ccccc2)[nH]1)C(=O)NN (centres undefined): inactive
36. O=C(O)C(Cc1ccc(O)cn1)NC(=O)C(F)(F)F (centres undefined): inactive
37. COc1ccc([C@@H]2CC(=O)N2)cc1: inactive
38. CN1N=C(c2ccccc2)C(C(c2ccccc2[N+](=O)[O-])C2C(=O)N(C)N=C2c2ccccc2)C1=O (centres undefined): inactive
39. CC(=O)/N=C1/N(/C=C2\C(=O)Oc3ccccc3C2=O)C(=O)/C(=C/c2ccc(OC(C)=O)cc2)N1C: inactive
